// reported GI50 for each item listed
- Tested on: OVCAR-3 ovarian
- assay.details: NCI tumour cell line growth inhibition, 48 h

Field: example entries. Status: answers known.
[[record]]
smiles_entry = "Cc1c(Cl)c(=O)oc2cc(OC/C=C3\\CCC(=O)O3)ccc12"
assay_endpoint = "GI50"
result = "14.7 µM"

[[record]]
smiles_entry = "CC1=C(/C=C/C(=O)CC(=O)/C=C/C2=C(C)CCCC2(C)C)C(C)(C)CCC1"
assay_endpoint = "GI50"
result = "32.1 µM"

[[record]]
smiles_entry = "COc1cc(Cl)cc(-c2nn(-c3cccc(NC(=O)Nc4cccc(C(F)(F)F)c4)c3)cc2-c2ccncc2)c1"
assay_endpoint = "GI50"
result = "0.592 µM"

[[record]]
smiles_entry = "C=C1c2ccccc2C(=O)c2c1c1c(C(=O)OC)c(OC(=O)OCc3ccc([N+](=O)[O-])cc3)ccc1n2Cc1ccccc1"
assay_endpoint = "GI50"
result = "2.39 µM"

[[record]]
smiles_entry = "O=[N+]([O-])c1cccc(-c2nc(-c3ccc(Cl)cc3Cl)cn2-c2ccccc2)c1"
assay_endpoint = "GI50"
result = "0.458 µM"


Field: next compound
Measured on OVCAR-3 ovarian, Cc1ccc(C(=O)NCCCOc2ccc(N3C(N)=NC(N)=NC3(C)C)cc2Cl)cc1S(=O)(=O)F has a documented GI50 of > 100 µM

====

// reported TGI for each item listed
- Test system: HCT-15 colon
- assay.details: NCI tumour cell line growth inhibition, 48 h

[[record]]
compound = "CCc1c2cc(OC)c(OC)cc2cc2c3cc(OC)c(OC)cc3cc[n+]12 (tested in a mixture with another compound)"
result = "> 61.7 µM"

[[record]]
compound = "O=C1C[C@H](COCc2ccccc2)NC(=O)C[C@H](COCc2ccccc2)NC(=O)C[C@H](COCc2ccccc2)N1"
result = "> 100 µM"

[[record]]
compound = "C1OC1CN1CCN(CC2CO2)CC1 (stereo not given)"
result = "> 100 µM"

[[record]]
compound = "O=C1c2c(Br)sc(Br)c2[C@@H](Cl)[C@H]1Cl"
result = "71.3 µM"


Field: next compound
Measured TGI, Cc1cccc(C)c1NC(=O)CCC/C(CC(=O)c1ccc(F)cc1)=N\NC(=O)C(=O)NN : > 100 µM

====

- Test system: U251 CNS
- assay.details: NCI tumour cell line growth inhibition, 48 h; in the data active means GI50 below about 0.43 µM; inactive means the rest
// one of active, inactive, no free text

Previously resolved entries follow.
[[record]]
molecule = "N#CC1=C(N)NC(=S)NC1c1ccc(-c2ccc(-c3nc4ccccc4o3)cc2)s1 (stereo not given)"
target = "U251 CNS"
classification = "inactive"

[[record]]
molecule = "COCCOCCOCc1n(Cc2ccc3ccccc3c2)c2ccccc2[n+]1Cc1ccc2ccccc2c1"
target = "U251 CNS"
classification = "active"


Just curious, what result did COc1cc(Cl)cc(-c2nn(-c3cccc(NC(=O)Nc4cccc(C(F)(F)F)c4)c3)cc2-c2ccncc2)c1 get here? inactive

Just curious, what result did Nc1c(C(=O)Nc2ccccn2)sc2nc3c(cc12)C(O)CCC3 (stereo not given) get here? inactive

Just curious, what result did Nc1ccccc1C#C/C=C\C#CC#C/C=C\C#Cc1ccccc1N get here? inactive

Just curious, what result did N#Cc1cnc2cc(OC[C@@H](O)CO)c(NC(=O)C3CCCC3)cc2c1Nc1ccc(OCc2cccc(F)c2)c(Cl)c1 get here? inactive

Just curious, what result did CC(C)(C)OC(=O)NCCCCn1c2c(c3ccccc3c1=O)C(=O)c1ccccc1-2 get here? inactive

Just curious, what result did CC1=C(/C=C/C(=O)CC(=O)/C=C/C2=C(C)CCCC2(C)C)C(C)(C)CCC1 get here? inactive

Just curious, what result did Nc1nonc1-c1nc2ccccc2n1Cc1ccc(F)cc1 get here? inactive

Just curious, what result did COc1cccc(-c2nn(-c3ccccc3)cc2-c2ccnc(NCCCNC(=O)c3cccc(C(F)(F)F)c3)c2)c1 get here? inactive

Just curious, what result did O=S(=O)(NCCNc1nccc(-c2c(-c3ccc(F)c(O)c3)nc3sccn23)n1)c1ccc(Cl)cc1 get here? inactive

Just curious, what result did Cc1ccc(Nc2cc(Cl)c([N+](=O)[O-])cc2[N+](=O)[O-])cc1 get here? inactive

Just curious, what result did O=[N+]([O-])c1cccc(-c2nc(-c3ccc(Cl)cc3Cl)cn2-c2ccccc2)c1 get here? inactive

Just curious, what result did CC(C)(C)c1cc(C(=O)Nc2ccc(C(=O)NCCN)cc2)cc(C(C)(C)C)c1 get here? inactive

Just curious, what result did CC(=O)Oc1ccc2c(c1)[C@@]1(C)CCCC(C)(C)[C@@H]1CC2 get here? inactive

Just curious, what result did N#Cc1ccc(-c2c(-c3ncn[nH]3)sc(N3CCOCC3)c2C#N)c(F)c1 get here? inactive

Just curious, what result did C[C@]12CC[C@@H]3c4ccc(O)cc4CC[C@H]3[C@@H]1CC[C@@H]2NS(=O)(=O)c1ccc(Br)cc1 get here? inactive

Just curious, what result did O=C(NCCc1ccccc1)Nc1ccc2cc3ccc(NC(=O)NCCc4ccccc4)cc3nc2c1 get here? inactive

Just curious, what result did O=C(Nc1cccc(-n2cc(-c3ccncc3)c(-c3ccc(O)c(Cl)c3)n2)c1)c1ccc2c(c1)OCCO2 get here? inactive

Just curious, what result did CCN(CC)c1c(-c2ccccc2)n[nH]c1C(=O)OC get here? inactive
